Would you kindly list MIC of Aztreonam in combination with BLI for each of these compounds?
Tested on: KPC-2 producing K. pneumoniae (ATCC BAA-1705)
ASSAY_EXPLANATION: Synergistic broth micro-dilution MIC (checkerboard)
Format: cell-based, Klebsiella pneumoniae
EXPERIMENTAL_SETUP: BLI at 16 μg/mL; ATCC BAA-1705

O=C(O)[C@H]1/C(=C/CO)O[C@@H]2CC(=O)N21 = >64 mg/L
CC1(C)[C@H](C(=O)O)N2C(=O)C[C@H]2S1(=O)=O = >64 mg/L

Quick request: MIC of Aztreonam in combination with BLI for each listed item, please.
1. C[n+]1ccn(C[C@@]2(C)[C@H](C(=O)[O-])N3C(=O)C[C@H]3S2(=O)=O)n1
2. C[C@]1(Cn2ccnn2)[C@H](C(=O)O)N2C(=O)C[C@H]2S1(=O)=O

Response:
64 mg/L
>64 mg/L

---

Test system: KPC-2 producing K. pneumoniae (ATCC BAA-1705)
ASSAY_EXPLANATION: Synergistic broth micro-dilution MIC (checkerboard)
Format: cell-based, Klebsiella pneumoniae
EXPERIMENTAL_SETUP: BLI at 4 μg/mL; ATCC BAA-1705
For each of the compounds below, state its MIC of Ceftazidime in combination with BLI.

Illustrative cases are given below, each with its answer.
CC1(C)[C@H](C(=O)O)N2C(=O)C[C@H]2S1(=O)=O = >64 mg/L
O=C(O)[C@H]1/C(=C/CO)O[C@@H]2CC(=O)N21 = >64 mg/L
C[n+]1ccn(C[C@@]2(C)[C@H](C(=O)[O-])N3C(=O)C[C@H]3S2(=O)=O)n1 = ≥64 mg/L

// next item, MIC of Ceftazidime in combination with BLI requested
Request: Provide one value: measured MIC of Ceftazidime in combination with BLI of C[C@]1(Cn2ccnn2)[C@H](C(=O)O)N2C(=O)C[C@H]2S1(=O)=O
Response: >64 mg/L

---

Tested on: KPC-3 expressing E. coli (J53 R6206)
ASSAY_EXPLANATION: Synergistic broth micro-dilution MIC (checkerboard)
Type: cell-based, Escherichia coli
EXPERIMENTAL_SETUP: BLI at 2 μg/mL
ATTRIBUTE_MEASURED: MIC of Cefotaxime in combination with BLI (µg/mL)
Answers are plain numbers, in µg/mL.

Completed entries (count: 2):
C[n+]1ccn(C[C@@]2(C)[C@H](C(=O)[O-])N3C(=O)C[C@H]3S2(=O)=O)n1 = 1
O=C(O)[C@H]1/C(=C/CO)O[C@@H]2CC(=O)N21 = 4

// switching to the query molecule
Request: Retrieve MIC of Cefotaxime in combination with BLI measured for C[C@]1(Cn2ccnn2)[C@H](C(=O)O)N2C(=O)C[C@H]2S1(=O)=O and print it.
Response: 8

---

System: KPC-3 expressing E. coli (J53 R6206)
ASSAY_EXPLANATION: Synergistic broth micro-dilution MIC (checkerboard)
Format: cell-based, Escherichia coli
EXPERIMENTAL_SETUP: BLI at 4 μg/mL
Give measured MIC of Cefepime in combination with BLI for each item. Keep answers brief.
Numbers only, in µg/mL.

C[n+]1ccn(C[C@@]2(C)[C@H](C(=O)[O-])N3C(=O)C[C@H]3S2(=O)=O)n1 [Compound-1] = 0.25

Quick one: give me MIC of Cefepime in combination with BLI for each item below, same order please.
1. O=C(O)[C@H]1/C(=C/CO)O[C@@H]2CC(=O)N21 [Clavulanic acid]
2. C[C@]1(Cn2ccnn2)[C@H](C(=O)O)N2C(=O)C[C@H]2S1(=O)=O [Tazobactam]
3. CC1(C)[C@H](C(=O)O)N2C(=O)C[C@H]2S1(=O)=O [Sulbactam]

Response:
1. 8
2. 8
3. 16

Where these numbers come from: patent US10201532B2
